All figures here come from ChEMBL document CHEMBL1130199.

Reported pKi is given for each of the following compounds.
molecular target: 5-hydroxytryptamine receptor 1A (Homo sapiens, UniProt P08908); assay: Binding affinity for 5-hydroxytryptamine 1A receptor in HeLa transfected cell type using [3H]8-OH-DPAT as radioligand
Sequence (P08908 whole entry): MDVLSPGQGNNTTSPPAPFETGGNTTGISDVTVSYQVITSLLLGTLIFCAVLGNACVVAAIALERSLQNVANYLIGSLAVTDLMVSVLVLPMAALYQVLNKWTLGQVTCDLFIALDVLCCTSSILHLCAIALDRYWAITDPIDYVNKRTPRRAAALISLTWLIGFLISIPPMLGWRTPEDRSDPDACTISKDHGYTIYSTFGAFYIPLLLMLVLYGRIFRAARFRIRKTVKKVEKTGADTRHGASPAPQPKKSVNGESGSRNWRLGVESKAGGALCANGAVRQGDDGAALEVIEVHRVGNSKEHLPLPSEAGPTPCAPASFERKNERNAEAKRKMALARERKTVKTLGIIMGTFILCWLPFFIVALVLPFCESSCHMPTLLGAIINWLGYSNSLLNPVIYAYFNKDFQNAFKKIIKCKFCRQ
Please express pKi as -log10 of the molar concentration.

> print(dat)
                            compound.string  recorded.endpoint  numeric.readout
1  CN(C)CCCc1cc(C(=O)Nc2ccc(-c3ccncc3)cc2)ccc1O                pKi             6.07

Request: What value of pKi on 5-hydroxytryptamine receptor 1A (Homo sapiens, UniProt P08908) does COc1ccc(C(=O)Nc2ccc(-c3ccncc3)cc2)cc1C=CCN(C)C have?
Result: 6.20
